experiment: CV dog telemetry (single dose, iv); details: dog, plasma, iv, 50 mg/kg
endpoint.label: Cmax (µg/mL)
Quick note: give the figure in µg/mL, leave out the unit.

Exam item: Look at this molecule and give its reported Cmax. C[C@@H]1CN2c3c(cc4c(N5C(=O)OC[C@@H]5C)noc4c3F)CC3(C(=O)NC(=O)NC3=O)[C@H]2[C@H](C)O1
Marked response: 63

###

test: Dog pharmacokinetics; type: in vivo, Beagle dog; details: plasma; Beagle dog (male), IV 2.5 mg/kg; read-out: T1/2 (IV) (converted)
endpoint.label: half-life (h)
Quick reminder: number only, in h, skip the unit.

Exam item: Could you share which half-life value was measured for C[C@@H]1CN2c3c(cc4c(N5C(=O)OC[C@@H]5C)noc4c3F)CC3(C(=O)NC(=O)NC3=O)[C@H]2[C@H](C)O1 ?
Marked response: 3

###

assay: hepatocyte intrinsic clearance; format: in vitro ADME; conditions: female, CD-1, mouse hepatocytes
endpoint.label: hepatocyte CLint at 1 µM (µL/min/1e6 cells)
Respond numerically; units are µL/min/1e6 cells and should not be typed.

Exam item: Quick one: hepatocyte CLint at 1 µM for C[C@@H]1CN2c3c(cc4c(N5C(=O)OC[C@@H]5C)noc4c3F)CC3(C(=O)NC(=O)NC3=O)[C@H]2[C@H](C)O1 [ETX0914] ?
Marked response: 7

###

test: Dog pharmacokinetics; assay type: in vivo, Beagle dog; settings: plasma; Beagle dog (male), PO 5 mg/kg
endpoint.label: Cmax (µM)
Form entry: value (µM) — number only.

Exam item: Query: Cmax; subject: C[C@@H]1CN2c3c(cc4c(N5C(=O)OC[C@@H]5C)noc4c3F)CC3(C(=O)NC(=O)NC3=O)[C@H]2[C@H](C)O1 [ETX0914]
Marked response: 7.1

###

Assay: Single dose pharmacokinetics, rat
Type: in vivo
Conditions: plasma; Han-Wister rat (male), IV 10 mg/kg; read-out: T1/2 (IV) (converted)
Protocol: AZD0914 was analyzed in mouse, rat, dog, monkey plasma using a qualified method which was later validated for human plasma analysis. The validated human method is described below and is representative of the approach taken in other species. AZD0914 was determined in human plasma prepared with K2EDTA as an anticoagulant. […] After evaporating to dryness under a stream of nitrogen, the residue was reconstituted and quantitated by reverse phase HPLC-MS/MS against a standard curve from 1.00 to 5000 ng/ml. […]
endpoint.label: half-life
Reply with the number and its unit after it.

Exam item: // lookup half-life for C[C@@H]1CN2c3c(cc4c(N5C(=O)OC[C@@H]5C)noc4c3F)CC3(C(=O)NC(=O)NC3=O)[C@H]2[C@H](C)O1
Marked response: 42 min

###

target: Kv1.5 (Homo sapiens); assay: In vitro ion channel function; conditions: Ikr/Kv1.5 IC50, Rapidly activating K^+ delayed rectifier
endpoint.label: IC50

compound="C[C@@H]1CN2c3c(cc4c(N5C(=O)OC[C@@H]5C)noc4c3F)CC3(C(=O)NC(=O)NC3=O)[C@H]2[C@H](C)O1 [Compound 1]" reading="> 100 µM"
compound=C[C@@H]1CN2c3c(cc4c(C(=O)NCC(F)(F)F)noc4c3F)CC3(C(=O)NC(=O)NC3=O)[C@H]2[C@H](C)O1 reading="> 100 µM"
compound="C[C@@H]1CN2c3c(cc4c(N5C(=O)OC[C@@H]5C)noc4c3F)CC3(C(=O)NC(=O)NC3=O)[C@H]2[C@H](C)O1 [ETX0914]" reading="> 333 µM"

--- query ---
Exam item: // IC50 lookup, key: Cc1noc2c(F)c3c(cc12)CC1(C(=O)NC(=O)NC1=O)[C@H]1[C@H](C)O[C@H](C)CN31
Marked response: > 100 µM

###

assay: 28 day oral toxicology study, dog; details: both, beagle, dog, plasma, po, 500 mg/kg/day
endpoint.label: AUC
The number alone won't do; follow it with the unit.

Exam item: Bench note: what AUC did C[C@@H]1CN2c3c(cc4c(N5C(=O)OC[C@@H]5C)noc4c3F)CC3(C(=O)NC(=O)NC3=O)[C@H]2[C@H](C)O1 [ETX0914] show?
Marked response: 2780 µg·h/mL

###

assay: Single dose pharmacokinetics, rat; assay type: in vivo; details: plasma; Han-Wister rat (male), PO 10 mg/kg
endpoint.label: Cmax (nM)
Report only the number, with the unit nM understood.

Exam item: # input compound: C[C@@H]1CN2c3c(cc4c(N5C(=O)OC[C@@H]5C)noc4c3F)CC3(C(=O)NC(=O)NC3=O)[C@H]2[C@H](C)O1 ; wanted: its Cmax
Marked response: 1700

###

assay: Single dose pharmacokinetics, rat; format: in vivo; conditions: plasma; Han-Wister rat (male), IV 10 / PO 10 mg/kg
endpoint.label: bioavailability (%)
Give just the numeric value; % need not be written.

Exam item: Name the reported bioavailability value associated with the molecule C[C@@H]1CN2c3c(cc4c(N5C(=O)OC[C@@H]5C)noc4c3F)CC3(C(=O)NC(=O)NC3=O)[C@H]2[C@H](C)O1 [ETX0914]
Marked response: 34

###

assay: 28 day oral toxicology study, dog; conditions: both, beagle, dog, plasma, po, 200 mg/kg/day
endpoint.label: AUC

Exam item: Dear colleague, I am looking for the recorded AUC of the following molecule: C[C@@H]1CN2c3c(cc4c(N5C(=O)OC[C@@H]5C)noc4c3F)CC3(C(=O)NC(=O)NC3=O)[C@H]2[C@H](C)O1 [ETX0914]
Marked response: 2160 µg·h/mL

###

test: Single dose pharmacokinetics, mouse; assay type: in vivo, CD-1 mouse; conditions: plasma; CD-1 mouse (female), PO 10 mg/kg; read-out: T1/2 (PO) (converted)
endpoint.label: half-life
Answer as a quantity: numeral, then unit.

Exam item: Would you kindly share the measured half-life for C[C@@H]1CN2c3c(cc4c(N5C(=O)OC[C@@H]5C)noc4c3F)CC3(C(=O)NC(=O)NC3=O)[C@H]2[C@H](C)O1 ?
Marked response: 96 min

###

assay: Single dose pharmacokinetics, rat; type: in vivo; settings: plasma; Han-Wister rat (male), IV 10 mg/kg; read-out: Vss (IV)
endpoint.label: Vd
Hey, just the number and the unit after it is fine.

Exam item: I have this compound here, C[C@@H]1CN2c3c(cc4c(N5C(=O)OC[C@@H]5C)noc4c3F)CC3(C(=O)NC(=O)NC3=O)[C@H]2[C@H](C)O1 [ETX0914] , and I need its recorded Vd.
Marked response: 1.2 L/kg

###

Target: UniProt:Q13936
Assay: In vitro ion channel function
Details: hCav1.2 IC50, Ca^2+ entry into excitable cells
Description: Supplement srep11827-s1.doc, table 3 | column: Table S2: In vitro ion channel function IC50 (µM)
endpoint.label: IC50

compound=C[C@@H]1CN2c3c(cc4c(C(=O)NCC(F)(F)F)noc4c3F)CC3(C(=O)NC(=O)NC3=O)[C@H]2[C@H](C)O1 reading="> 100 µM"
compound="C[C@@H]1CN2c3c(cc4c(N5C(=O)OC[C@@H]5C)noc4c3F)CC3(C(=O)NC(=O)NC3=O)[C@H]2[C@H](C)O1 [ETX0914]" reading="326 µM"
compound=C[C@@H]1CN2c3c(cc4c(-n5cncn5)noc4c3F)CC3(C(=O)NC(=O)NC3=O)[C@H]2[C@H](C)O1 reading="> 100 µM"
compound=Cc1noc2c(F)c3c(cc12)CC1(C(=O)NC(=O)NC1=O)[C@H]1[C@H](C)O[C@H](C)CN31 reading="> 100 µM"

Here is another compound to look at.
Exam item: Consider the compound C[C@@H]1CN2c3c(cc4c(N5C(=O)OC[C@@H]5C)noc4c3F)CC3(C(=O)NC(=O)NC3=O)[C@H]2[C@H](C)O1 [Compound 1] and give its measured IC50.
Marked response: > 100 µM

###

experiment: in vivo; conditions: rat, po
endpoint.label: AUC (µM·h)
All answers are understood in µM·h, so give the number only.

Exam item: Can you share its AUC? I mean this molecule: CC(=O)NC[C@H]1CN(c2ccc(N3CCOCC3)c(F)c2)C(=O)O1 [Linezolid]
Marked response: 1900

###

assay: Phase 1 study in healthy volunteers, oral suspension; type: in vivo, human; conditions: both sexes, human, plasma, oral; 8 to 72 hour post-dose period
endpoint.label: half-life

Exam item: Which measured half-life value corresponds to C[C@@H]1CN2c3c(cc4c(N5C(=O)OC[C@@H]5C)noc4c3F)CC3(C(=O)NC(=O)NC3=O)[C@H]2[C@H](C)O1 ?
Marked response: 5.2 to 6.25 h

###

system: S. aureus AP607004 (MRQR); test: MIC (CLSI broth microdilution); type: cell-based
Recorded MIC: S. aureus AP607004 (MRQR) for the following compounds
Answer format: number, then unit.

compound=C[C@@H]1CN2c3c(cc4c(-n5cncn5)noc4c3F)CC3(C(=O)NC(=O)NC3=O)[C@H]2[C@H](C)O1 endpoint_label="MIC: S. aureus AP607004 (MRQR)" reading="0.063 mg/L"

Exam item: Form entry - test system: S. aureus AP607004 (MRQR); read-out: MIC: S. aureus AP607004 (MRQR); compound: C[C@H]1COc2c(N3CCN(C)CC3)c(F)cc3c(=O)c(C(=O)O)cn1c23 [Levofloxacin, reference compound]
Marked response: 8 mg/L

Exam item: Form entry - test system: S. aureus AP607004 (MRQR); read-out: MIC: S. aureus AP607004 (MRQR); compound: Cc1nnc(-c2noc3c(F)c4c(cc23)CC2(C(=O)NC(=O)NC2=O)[C@H]2[C@H](C)O[C@H](C)CN42)o1
Marked response: 0.25 mg/L

Exam item: Request - read-out MIC: S. aureus AP607004 (MRQR) | tested on S. aureus AP607004 (MRQR) | compound C[C@@H]1CN2c3c(cc4c(C(=O)NCC(F)(F)F)noc4c3F)CC3(C(=O)NC(=O)NC3=O)[C@H]2[C@H](C)O1
Marked response: 0.25 mg/L

Exam item: Give recorded MIC: S. aureus AP607004 (MRQR) with S. aureus AP607004 (MRQR) for the following compound: C[C@@H]1CN2c3c(cc4c(N5C(=O)OC[C@@H]5C)noc4c3F)CC3(C(=O)NC(=O)NC3=O)[C@H]2[C@H](C)O1
Marked response: 0.5 mg/L

Exam item: Tell me reported MIC: S. aureus AP607004 (MRQR) for Cc1noc2c(F)c3c(cc12)CC1(C(=O)NC(=O)NC1=O)[C@H]1[C@H](C)O[C@H](C)CN31 , tested with S. aureus AP607004 (MRQR).
Marked response: 0.5 mg/L

Just for reference, paper PMC4501059 is where these values come from.
